Measured melting point values are reported for all entries that follow.
measurement label: melting point

compound | result
Cc1ccc(C(=O)NCc2ccc3c(c2)C(=O)N(C2CCC(=O)NC2=O)C3=O)cc1 (stereo not given) | 194 to 196 °C
O=S(=O)(Nc1ccc2c(OCC3(c4cccc(C(F)(F)F)c4)N=CNO3)cccc2c1)C(F)(F)F (stereo not given) | 107 to 108 °C
CNC(=O)CN1CCc2cc(Nc3ncc(Cl)c(Nc4ccc(N5CCOCC5)cc4OC)n3)c(OC)cc2CC1 | 113 to 130 °C
Cc1cc(CCCCCCCc2ccc(C#N)cc2)on1 | 61 °C
CCOC(=O)c1ncn2c1CN=C(NCC(OC)OC)c1ccccc1-2 | 121 to 122 °C
Cn1cncc1C(CC#N)(c1ccc(Cl)cc1)c1ccc2c(c1)c(-c1cccc(Cl)c1)cc(=O)n2C (stereo not given) | 151 °C
CC1=Nc2c3ccccc3nc(=O)n2C1C (stereo not given) | 234 to 237 °C
O=C(Nc1ccc(Br)c(C(F)(F)F)c1)c1cccnc1NCn1ccccc1=O | 202 to 205 °C
CCCCCCCCCC(=O)Oc1ccc2c(N3CCN(CCCC(=O)c4ccc(F)cc4)CC3)noc2c1 | 69 to 71 °C
Cc1c(Cc2ccccc2)c(=O)[nH]c2cc(O)cc(O)c12 | 307 to 312 °C
COC(=O)NC=Cc1ccc(O)cc1 | 169 to 170 °C
O=C1Nc2cccc(-c3cccc([N+](=O)[O-])c3)c2/C1=C/c1ccc[nH]1 | 197 to 199 °C
CS(=O)(=O)c1ccc(C2=C(c3cccc(F)c3F)CCC2)cc1 | 151 to 152 °C
CCOC(=S)c1c(COC)nc2cc(F)c(F)cc2c1O | 126 to 129 °C
CCCC(=O)NCC1CCc2c(OC)ccc3cccc1c23 (stereo not given) | 100 °C
[N-]=[N+]=NCCc1cccc2[nH]cc(S(=O)(=O)c3ccccc3)c12 | 143 °C
CCOC(=O)c1c(-c2ccc(OC)cc2)n2c3c(cccc13)OC(CCN1CCN(c3cc(C)ccn3)CC1)C2 (stereo not given) | 149 to 150 °C
CC(=O)Nc1ccc(C(C)(C)C(=O)O)cc1 | 170 to 171 °C
O=C(N[C@@H](Cc1c[nH]c2ccccc12)C(=O)O)c1ccc([N+](=O)[O-])cc1 | 115 to 117 °C
CCOC(=O)C(C)(C)Oc1ccc(CCNC(=O)C(C)(C)Oc2cccc(OC)c2)cc1 | 68 to 69 °C
